experimental-system: thrombin-stimulated platelets (Homo sapiens, UniProt P05106+P08514)
Sequence (P08514 32-1039): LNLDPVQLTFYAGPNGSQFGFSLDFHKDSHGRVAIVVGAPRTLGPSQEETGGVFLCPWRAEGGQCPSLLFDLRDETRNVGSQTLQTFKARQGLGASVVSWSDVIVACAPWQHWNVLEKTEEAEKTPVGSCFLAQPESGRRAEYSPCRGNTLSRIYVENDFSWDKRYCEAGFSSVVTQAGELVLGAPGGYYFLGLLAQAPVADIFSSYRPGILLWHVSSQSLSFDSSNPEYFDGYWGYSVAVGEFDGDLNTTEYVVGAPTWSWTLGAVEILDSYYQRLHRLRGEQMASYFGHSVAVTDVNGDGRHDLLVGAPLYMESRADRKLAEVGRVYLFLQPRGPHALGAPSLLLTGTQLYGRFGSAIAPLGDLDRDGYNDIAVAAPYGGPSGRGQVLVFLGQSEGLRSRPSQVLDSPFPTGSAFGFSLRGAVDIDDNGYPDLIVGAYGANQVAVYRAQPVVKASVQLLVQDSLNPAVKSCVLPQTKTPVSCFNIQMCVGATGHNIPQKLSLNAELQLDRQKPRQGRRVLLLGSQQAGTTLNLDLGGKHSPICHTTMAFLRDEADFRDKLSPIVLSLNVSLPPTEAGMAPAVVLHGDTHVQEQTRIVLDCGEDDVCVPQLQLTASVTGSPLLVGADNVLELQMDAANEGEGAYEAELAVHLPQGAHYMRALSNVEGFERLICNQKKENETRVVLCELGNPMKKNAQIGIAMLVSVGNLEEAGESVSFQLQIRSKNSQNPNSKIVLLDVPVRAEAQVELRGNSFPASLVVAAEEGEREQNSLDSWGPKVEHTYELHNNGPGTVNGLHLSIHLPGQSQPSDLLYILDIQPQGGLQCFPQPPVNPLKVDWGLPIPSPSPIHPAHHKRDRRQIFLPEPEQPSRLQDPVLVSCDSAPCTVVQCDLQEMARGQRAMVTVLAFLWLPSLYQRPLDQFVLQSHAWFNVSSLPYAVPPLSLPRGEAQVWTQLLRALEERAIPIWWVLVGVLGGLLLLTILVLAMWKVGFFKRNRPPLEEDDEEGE
Sequence (P05106 27-788): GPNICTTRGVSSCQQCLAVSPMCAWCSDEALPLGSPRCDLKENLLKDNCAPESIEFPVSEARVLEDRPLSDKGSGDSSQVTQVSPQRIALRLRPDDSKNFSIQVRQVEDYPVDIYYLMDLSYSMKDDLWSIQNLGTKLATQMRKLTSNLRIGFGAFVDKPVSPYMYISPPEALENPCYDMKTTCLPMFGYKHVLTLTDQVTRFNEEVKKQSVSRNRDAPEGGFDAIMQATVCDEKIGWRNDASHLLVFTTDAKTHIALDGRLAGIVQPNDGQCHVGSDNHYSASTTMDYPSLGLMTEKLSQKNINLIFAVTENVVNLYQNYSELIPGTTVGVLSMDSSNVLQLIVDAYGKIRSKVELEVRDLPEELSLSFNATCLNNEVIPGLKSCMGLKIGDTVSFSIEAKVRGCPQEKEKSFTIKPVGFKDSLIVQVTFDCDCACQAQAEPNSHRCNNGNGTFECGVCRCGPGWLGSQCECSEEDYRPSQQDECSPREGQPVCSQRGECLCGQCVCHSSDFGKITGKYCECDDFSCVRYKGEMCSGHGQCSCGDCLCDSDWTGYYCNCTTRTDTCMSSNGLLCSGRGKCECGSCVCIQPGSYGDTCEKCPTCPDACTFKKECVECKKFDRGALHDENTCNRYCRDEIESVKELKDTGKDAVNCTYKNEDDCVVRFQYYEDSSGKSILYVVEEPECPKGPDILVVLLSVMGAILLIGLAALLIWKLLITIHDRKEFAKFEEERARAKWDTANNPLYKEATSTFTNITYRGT
test-summary: Fibrinogen-Binding Assay (125I-fibrinogen binding to platelets)
measurement-context: 125I-fibrinogen 0.176 μmol/liter, thrombin-stimulated platelets; read-out: Inhibition of 125I-Fibrinogen Binding to Platelets IC50
Non-standard residues stand in square brackets, D forms with d. Residues, ends and D or L forms follow the SMILES beside them. Ahx = NCCCCCC(=O)O; Ava = NCCCCC(=O)O; NEtG = CCNCC(=O)O
Reported pIC50 values for the following compounds.
pIC50 here: minus log base 10 of the concentration, concentration in moles per litre.

Answered examples (3):
{"columns": ["compound", "experimental-system", "quantitative-readout"],
 "data": [
  ["CCN(CC(=O)N[C@@H](CC(=O)O)C(=O)N[C@@H](Cc1ccc(O)cc1)C(=O)O)C(=O)CCCCCNC(=N)N", "thrombin-stimulated platelets (Homo sapiens, UniProt P05106+P08514)", 6.74],
  ["COC(=O)[C@](CCCNC(=N)N)(Cc1ccccc1)NC(=O)[C@H](CC(=O)O)NC(=O)CCCCCCCCNC(=N)N", "thrombin-stimulated platelets (Homo sapiens, UniProt P05106+P08514)", 4.70],
  ["CCN(CC(=O)N[C@@H](CC(=O)O)C(=O)N[C@H](C(=O)O)C(C)C)C(=O)CCCCCN (H-[Ahx][NEtG]DV-OH)", "thrombin-stimulated platelets (Homo sapiens, UniProt P05106+P08514)", 5.40]
]}

IN: Check thrombin-stimulated platelets (Homo sapiens, UniProt P05106+P08514) data and give pIC50 for `CC[C@H](C)[C@H](NC(=O)[C@H](CC(=O)O)NC(=O)CCCCCCCCNC(=N)N)C(=O)N[C@@H](CCCNC(=N)N)C(=O)O` .
OUT: 6.43

IN: Check thrombin-stimulated platelets (Homo sapiens, UniProt P05106+P08514) data and give pIC50 for CC(C)[C@H](NC(=O)[C@H](CC(=O)O)NC(=O)CNC(=O)CCCCN)C(=O)O (H-[Ava]GDV-OH) .
OUT: 4.16

IN: Check thrombin-stimulated platelets (Homo sapiens, UniProt P05106+P08514) data and give pIC50 for `N=C(N)NCCCCCCCCC(=O)N[C@@H](CC(=O)O)C(=O)NCCC(=O)N[C@@H](CCCNC(=N)N)C(=O)O` .
OUT: 6.19

IN: Check thrombin-stimulated platelets (Homo sapiens, UniProt P05106+P08514) data and give pIC50 for `CC(C)CNC(=O)[C@H](CC(=O)O)NC(=O)CCCCCCCNC(=N)N` .
OUT: 4.84

IN: Check thrombin-stimulated platelets (Homo sapiens, UniProt P05106+P08514) data and give pIC50 for `CC(C)[C@H](NC(=O)[C@H](CC(=O)O)NC(=O)CNC(=O)CCCCn1ccnc1)C(=O)O` .
OUT: 5.90

IN: Check thrombin-stimulated platelets (Homo sapiens, UniProt P05106+P08514) data and give pIC50 for `CC(C)[C@H](NC(=O)[C@H](CC(=O)O)NC(=O)CCCCCCCn1ccnc1)C(=O)O` .
OUT: 6.07

IN: Check thrombin-stimulated platelets (Homo sapiens, UniProt P05106+P08514) data and give pIC50 for `CC[C@H](C)[C@H](NC(=O)CCNC(=O)[C@H](CC(=O)O)NC(=O)CCCCCCCCNC(=N)N)C(=O)O` .
OUT: 4.27

IN: Check thrombin-stimulated platelets (Homo sapiens, UniProt P05106+P08514) data and give pIC50 for `N=C(N)NCCCCCCCCC(=O)N[C@@H](CC(=O)O)C(=O)N[C@@H](CCCNC(=N)N)C(=O)O` .
OUT: 6.89

IN: Check thrombin-stimulated platelets (Homo sapiens, UniProt P05106+P08514) data and give pIC50 for `CC[C@H](C)[C@H](NC(=O)[C@H](CC(=O)O)NC(=O)CCCCCCCCNC(=N)N)C(=O)NCCCCNC(=N)N` .
OUT: 6.62

Ref: patent US5332726A
